Measured EC50 µg/ml Ramos Apoptosis Alamar Blue of individual entries
ASSAYED_TARGET: T1, human CD20 (human, UniProt P11836 1-297)
T1 sequence (looked up): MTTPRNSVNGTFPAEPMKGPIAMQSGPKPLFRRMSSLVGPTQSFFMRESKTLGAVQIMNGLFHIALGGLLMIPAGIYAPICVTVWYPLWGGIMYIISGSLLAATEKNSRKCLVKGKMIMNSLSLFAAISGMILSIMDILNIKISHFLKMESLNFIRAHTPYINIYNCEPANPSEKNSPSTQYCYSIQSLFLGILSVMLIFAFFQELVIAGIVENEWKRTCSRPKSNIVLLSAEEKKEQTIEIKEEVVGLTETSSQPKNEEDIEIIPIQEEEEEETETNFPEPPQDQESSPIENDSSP
ASSAY_EXPLANATION: cell-based or functional assay
Numbers only; they are read as µg/mL.

Below, each entry is followed by its recorded EC50 µg/ml Ramos Apoptosis Alamar Blue result.
mAb 1.13.2 (antibody, human IgG1, V domains shown, Human IgG1 kappa; also called 1.13.1; 50-001H1_13_1) VH: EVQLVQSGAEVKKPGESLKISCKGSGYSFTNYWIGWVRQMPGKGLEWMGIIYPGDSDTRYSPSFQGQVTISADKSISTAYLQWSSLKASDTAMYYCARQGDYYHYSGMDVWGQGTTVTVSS VL: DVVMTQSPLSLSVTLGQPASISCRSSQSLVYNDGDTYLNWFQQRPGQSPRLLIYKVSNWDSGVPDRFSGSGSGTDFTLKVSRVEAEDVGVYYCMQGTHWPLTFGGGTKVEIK | 0.291
mAb 2.1.2 (ATCC Accession Number PTA-7328) (antibody, human IgG1, V domains shown, Human IgG1 kappa; also called 2.1.1; 50-001H2_1_1) VH: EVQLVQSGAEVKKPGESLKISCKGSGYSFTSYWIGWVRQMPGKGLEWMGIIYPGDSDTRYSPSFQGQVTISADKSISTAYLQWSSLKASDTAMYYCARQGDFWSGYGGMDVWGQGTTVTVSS VL: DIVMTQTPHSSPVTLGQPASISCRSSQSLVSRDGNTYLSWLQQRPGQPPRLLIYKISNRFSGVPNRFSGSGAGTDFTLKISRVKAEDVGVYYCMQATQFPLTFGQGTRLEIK | 0.0329

The record that follows has no EC50 µg/ml Ramos Apoptosis Alamar Blue shown yet.
## Task Could you share which EC50 µg/ml Ramos Apoptosis Alamar Blue value was measured for mAb 1.6.2 (antibody, human IgG1, V domains shown) VH: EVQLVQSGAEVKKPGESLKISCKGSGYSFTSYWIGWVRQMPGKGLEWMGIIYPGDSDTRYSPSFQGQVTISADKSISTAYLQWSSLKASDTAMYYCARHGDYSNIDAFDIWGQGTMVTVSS VL: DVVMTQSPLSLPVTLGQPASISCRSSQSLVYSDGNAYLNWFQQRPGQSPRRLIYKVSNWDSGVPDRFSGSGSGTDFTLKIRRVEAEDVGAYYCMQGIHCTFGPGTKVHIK ?
## Result 0.16
